Tested on: Plasmodium falciparum
Protocol Notes: GSK_TCMDC: Inhibition of Plasmodium falciparum 3D7 in whole red blood cells, using parasite LDH activity as an index of growth. Test compounds present at 2uM
Type: functional
Measure: Inhibition (%)
One number for each entry, in %.

Sample answers from the record:
1. O=C(c1ccc([N+](=O)[O-])o1)N1CCC(c2cn(Cc3cccc(F)c3)c3ccccc23)CC1	97
2. CCS(=O)(=O)c1ccc(OC)c(Nc2nccc(-c3c(-c4cccc(NC(=O)c5c(F)cccc5F)c4)nn4ncccc34)n2)c1	87
3. CC(C)Nc1cc(C(=O)N[C@@H](Cc2ccccc2)[C@H](O)CNCc2cccc(C(F)(F)F)c2)c(F)c(N2CCCCS2(=O)=O)c1.O=CO	93
4. COc1cccc(-c2csc(C(=O)NC3CCCCN(Cc4ccc(C(C)(C)C)cc4)C3)c2)c1.O=C(O)C(F)(F)F (centres undefined)	97

Report Inhibition for every entry below.
1. CC1(C)CCNc2cc(NC(=O)c3ccc(-c4ncccc4C(F)(F)F)cc3)ccc21.Cl
2. CS(=O)(=O)c1ccc(-c2cncc(Nc3cccc([N+](=O)[O-])c3)c2)cc1
3. COCc1nc(N)nc(N)c1-c1ccc(Cl)c(Cl)c1

result:
1. 97
2. 97
3. 84

Provide Inhibition values for the following items, in order.
1. COc1ccc(-c2cnc3[nH]cc(-c4ccc(C(=O)O)cc4)c3c2)cn1.O=C(O)C(F)(F)F
2. CN1CCN(c2ccnc3ccc(NC(=O)Nc4ccc(Br)cc4)cc23)CC1

result:
[95, 100]
